# Test Target: T1, Bovine, dephosphorylated, Myelin Basic Protein (MBP), P02687
# T1 chain: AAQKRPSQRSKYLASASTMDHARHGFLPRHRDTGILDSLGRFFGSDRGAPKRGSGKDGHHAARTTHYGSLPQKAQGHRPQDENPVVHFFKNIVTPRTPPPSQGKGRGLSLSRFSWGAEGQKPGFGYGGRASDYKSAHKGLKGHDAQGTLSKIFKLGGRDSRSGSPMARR

Protein | MBP Kinase Activity
MAPK11(p38B) (protein) MSGPRAGFYRQELNKTVWEVPQRLQGLRPVGSGAYGSVCSAYDARLRQKVAVKKLSRPFQSLIHARRTYRELRLLKHLKHENVIGLLDVFTPATSIEDFSEVYLVTTLMGADLNNIVKCQALSDEHVQFLVYQLLRGLKYIHSAGIIHRDLKPSNVAVNEDCELRILDFGLARQADEEMTGYVATRWYRAPEIMLNWMHYNQTVDIWSVGCIMAELLQGKALFPGSDYIDQLKRIMEVVGTPSPEVLAKISSEHARTYIQSLPPMPQKDLSSIFRGANPLAIDLLGRMLVLDSDQRVSAAEALAHAYFSQYHDPEDEPEAEPYDESVEAKERTLEEWKELTYQEVLSFKPPEPPKPPGSLEIEQ | Strong
MAPK3(ERK1) (protein) MAAAAAQGGGGGEPRRTEGVGPGVPGEVEMVKGQPFDVGPRYTQLQYIGEGAYGMVSSAYDHVRKTRVAIKKISPFEHQTYCQRTLREIQILLRFRHENVIGIRDILRASTLEAMRDVYIVQDLMETDLYKLLKSQQLSNDHICYFLYQILRGLKYIHSANVLHRDLKPSNLLINTTCDLKICDFGLARIADPEHDHTGFLTEYVATRWYRAPEIMLNSKGYTKSIDIWSVGCILAEMLSNRPIFPGKHYLDQLNHILGILGSPSQEDLNCIINMKARNYLQSLPSKTKVAWAKLFPKSDSKALDLLDRMLTFNPNKRITVEEALAHPYLEQYYDPTDEPVAEEPFTFAMELDDLPKERLKELIFQETARFQPGVLEAP | Strong
MAPK12(p38gamma) (protein) MSSPPPARSGFYRQEVTKTAWEVRAVYRDLQPVGSGAYGAVCSAVDGRTGAKVAIKKLYRPFQSELFAKRAYRELRLLKHMRHENVIGLLDVFTPDETLDDFTDFYLVMPFMGTDLGKLMKHEKLGEDRIQFLVYQMLKGLRYIHAAGIIHRDLKPGNLAVNEDCELKILDFGLARQADSEMTGYVVTRWYRAPEVILNWMRYTQTVDIWSVGCIMAEMITGKTLFKGSDHLDQLKEIMKVTGTPPAEFVQRLQSDEAKNYMKGLPELEKKDFASILTNASPLAVNLLEKMLVLDAEQRVTAGEALAHPYFESLHDTEDEPQVQKYDDSFDDVDRTLDEWKRVTYKEVLSFKPPRQLGARVSKETPL | Strong
